Biological target: BTK (Homo sapiens, UniProt Q06187)
Construct: purchased ProQinase
Sequence (Q06187 whole entry): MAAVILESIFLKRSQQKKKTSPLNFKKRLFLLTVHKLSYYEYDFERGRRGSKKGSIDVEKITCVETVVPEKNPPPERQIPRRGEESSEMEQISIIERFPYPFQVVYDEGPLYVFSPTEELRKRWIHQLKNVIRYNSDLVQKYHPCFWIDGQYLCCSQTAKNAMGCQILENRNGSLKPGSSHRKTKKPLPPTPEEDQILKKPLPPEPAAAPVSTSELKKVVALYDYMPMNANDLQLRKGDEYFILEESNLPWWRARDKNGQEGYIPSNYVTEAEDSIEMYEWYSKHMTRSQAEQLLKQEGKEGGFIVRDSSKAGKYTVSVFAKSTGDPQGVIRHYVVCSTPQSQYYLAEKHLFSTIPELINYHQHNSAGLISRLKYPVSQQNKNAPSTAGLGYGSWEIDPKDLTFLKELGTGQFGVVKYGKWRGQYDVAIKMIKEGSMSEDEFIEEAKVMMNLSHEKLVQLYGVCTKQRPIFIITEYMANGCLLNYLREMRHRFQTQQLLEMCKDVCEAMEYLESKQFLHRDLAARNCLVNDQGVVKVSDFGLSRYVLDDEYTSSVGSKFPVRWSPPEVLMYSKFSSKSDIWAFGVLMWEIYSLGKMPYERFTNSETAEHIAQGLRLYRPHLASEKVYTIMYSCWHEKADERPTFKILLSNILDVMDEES
Assay: Recombinant kinase radioassay, BTK
Assay type: biochemical
Conditions: recombinant kinase, radioassay, ATP 15 µM; at least three independent experiments, range 0.01–100 µM; read-out: IC50 BTK
Exam item: assign 1 (yes) to entries whose IC50 is below 1000 nM and 0 (no) to entries at or above 1000 nM. Note that a value of exactly 1000 nM receives 0 (no).

# example entries with known answers
[[record]]
smiles_representation = "CCCCCCn1cnc2c(Nc3ccccc3)nc(Nc3ccc(N4CCN(C)CC4)cc3)nc21"
label_class = "1 (yes)"

[[record]]
smiles_representation = "CCCCCCn1cnc2c(Nc3cccc(F)c3)nc(Nc3ccc(N4CCN(C)CC4)cc3)nc21"
label_class = "1 (yes)"

[[record]]
smiles_representation = "CN1CCN(c2ccc(Nc3nc(Nc4cccc(OC(F)(F)F)c4)c4ncn(CC5CC5)c4n3)cc2)CC1"
label_class = "0 (no)"

[[record]]
smiles_representation = "CN1CCN(c2ccc(Nc3nc(Nc4ccc([N+](=O)[O-])cc4)c4ncn(CC5CC5)c4n3)cc2)CC1"
label_class = "1 (yes)"

[[record]]
smiles_representation = "Cc1cccc(Nc2nc(Nc3ccc(N4CCN(C)CC4)cc3)nc3c2ncn3CC2CC2)c1"
label_class = "0 (no)"


Request: Determine if CC(C)CCn1cnc2c(Nc3cccc(F)c3)nc(Nc3ccc(N4CCN(C)CC4)cc3)nc21 shows IC50 strictly lower than 1000 nM.
Result: 0 (no)

Request: Determine if CCCCCn1cnc2c(Nc3ccc(F)c(F)c3)nc(Nc3ccc(N4CCN(C)CC4)cc3)nc21 shows IC50 strictly lower than 1000 nM.
Result: 1 (yes)

Request: Determine if CN1CCN(c2ccc(Nc3nc(Nc4cccc(Cl)c4)c4ncn(CC5CC5)c4n3)cc2)CC1 shows IC50 strictly lower than 1000 nM.
Result: 0 (no)

Request: Determine if CN1CCN(c2ccc(Nc3nc(Nc4ccc(Cl)c(F)c4)c4ncn(CC5CC5)c4n3)cc2)CC1 shows IC50 strictly lower than 1000 nM.
Result: 1 (yes)

Request: Determine if CN1CCN(c2ccc(Nc3nc(Nc4cccc(C(F)(F)F)c4)c4ncn(CC5CC5)c4n3)cc2)CC1 shows IC50 strictly lower than 1000 nM.
Result: 0 (no)

Request: Determine if CN1CCN(c2ccc(Nc3nc(Nc4ccc(F)c(Cl)c4)c4ncn(CC5CC5)c4n3)cc2)CC1 shows IC50 strictly lower than 1000 nM.
Result: 0 (no)

Request: Determine if CN1CCN(c2ccc(Nc3nc(Nc4ccc(OC(F)(F)F)c([N+](=O)[O-])c4)c4ncn(CC5CC5)c4n3)cc2)CC1 shows IC50 strictly lower than 1000 nM.
Result: 0 (no)

Request: Determine if CN1CCN(c2ccc(Nc3nc(Nc4cccc(C#N)c4)c4ncn(CC5CC5)c4n3)cc2)CC1 shows IC50 strictly lower than 1000 nM.
Result: 0 (no)

Request: Determine if CN1CCN(c2ccc(Nc3nc(Nc4ccccc4F)c4ncn(CC5CC5)c4n3)cc2)CC1 shows IC50 strictly lower than 1000 nM.
Result: 0 (no)

Request: Determine if CN1CCN(C(=O)c2ccc(Nc3nc(Nc4ccc(F)c(F)c4)c4ncn(CC5CC5)c4n3)cc2)CC1 shows IC50 strictly lower than 1000 nM.
Result: 0 (no)
